Experiment: Isoelectric point (pI) of the peptides of Table 3
Assay type: physicochemical
Parameter pI: see the listing below.
METRIC: pI

INSERT INTO measurements (substance, recorded_number) VALUES
  ('Cp6: SEQ ID NO: 22, 8 amino acid residues (DIGEEFNQ; Synthetic sequence of Cp6)', 3.6),
  ('(Lys)10: SEQ ID NO: 6, 10 amino acid residues (KKKKKKKKKK; Synthetic sequence of (Lys)10)', 11),
  ('Blood coagulation factor XIII (Factor XIII): SEQ ID NO: 15, 25 amino acid residues (AVPPNNSNAAEDDLPTVELQGVVPR; Synthetic sequence of Factor XIII)', 3.9),
  ('Kininogen: SEQ ID NO: 7, 19 amino acid residues (HNLGHGHKHERDQGHGHQR; Synthetic sequence of Kininorgen)', 8.8),
  ('ACTH (2-16): SEQ ID NO: 10, 15 amino acid residues (YSMEHFRWGKPVGKK; Synthetic sequence of ACTH (2-16))', 10),
  ('Dynorphin A (YGGFLRRIRPKLK; Synthetic sequence of Dynorphin A)', 11.7),
  ('C4a: SEQ ID NO: 23, 15 amino acid residues (NGFKSHALQLNNRQI; Synthetic sequence of C4a) [Peptide C4a]', 11),
  ('ITIH4: SEQ ID NO: 28, 21 amino acid residues (NVHSAGAAGSRMNFRPGVLSS; Synthetic sequence of ITIH4)', 12),
  ('Fibrinogen α: SEQ ID NO: 12, 25 amino acid residues (DEAGSEADHEGTHSTKRGHAKSRPV; Synthetic sequence of Fibrinogen alpha)', 6.3),
  ('HSA 237-249 fragment: SEQ ID NO: 26, 13 amino acid residues (AWAVARLSQRFPK; Synthetic sequence of HSA237-249)', 12),
  ('HSA 599-609 fragment: SEQ ID NO: 30, 11 amino acid residues (LVAASQAALGL; Synthetic sequence of HSA599-609)', 5.5),
  ('C-peptide: SEQ ID NO: 31, 31 amino acid residues (EAEDLQVGQVELGGGPGAGSLQPLALEGSLQ; Synthetic sequence of C-peptide)', 3.5),
  ('lqp: SEQ ID NO: 13, 12 amino acid residues (GKYFNAAEYHAQ; Synthetic sequence of lqp)', 6.8),
  ('ACTH (1-41): SEQ ID NO: 17, 41 amino acid residues (GPSYSMEHFRWGKPVGKKRRPVKVYPNGAEDESAEAFPLEF; Synthetic sequence of ACTH (1-41))', 8.3);
